The values you see were collected from patent US9321809B2.

- Tested on: HCV replicon-containing huh-7 cells (replicon 1b)
- method_notes: HCV Replicon Assay (luciferase readout)
- Type: cell-based
- stated_conditions: Hepatitis C virus; HCV replicon 1b in huh-7 cells, 48 h incubation, 1% DMSO, luciferase signal; read-out: EC50 (EC 50 on replicon 1b)
Measured EC50 values are reported for all entries that follow.

# annotated cases, reported EC50 shown
C=C[C@@H]1C[C@]1(NC(=O)[C@@H]1C[C@@H]2CN1C(=O)[C@H](C(C)(C)C)NC(=O)[C@@H](NS(C)(=O)=O)COC/C=C/c1cccc3c1CN(C3)C(=O)O2)C(=O)NS(=O)(=O)C1CC1 10 to 50 nM
C=C[C@@H]1C[C@]1(NC(=O)[C@@H]1C[C@@H]2CN1C(=O)[C@H](C1CCCCC1)NC(=O)[C@@H](NC(=O)OC(C)(C)C)COCCCc1cc3c(nccc3cc1OC)O2)C(=O)NS(=O)(=O)C1CC1 < 10 nM
C=C[C@@H]1C[C@]1(NC(=O)[C@@H]1C[C@@H]2CN1C(=O)[C@H](C1CCCCC1)NC(=O)[C@@H](NC(=O)OC(C)(C)C)COCCCc1cccc3c1CN(C3)C(=O)O2)C(=O)NS(=O)(=O)C1CC1 < 10 nM
C=C[C@@H]1C[C@]1(NC(=O)[C@@H]1C[C@@H]2CN1C(=O)[C@H](C(C)(C)C)NC(=O)[C@H](NC(=O)OC(C)(C)C)COC/C=C/c1cccc3c1CN(C3)C(=O)O2)C(=O)NS(=O)(=O)C1CC1 50 to 500 nM

Now, please, on to the next compound.
Task: Under HCV replicon-containing huh-7 cells (replicon 1b): EC50 value of C=C[C@@H]1C[C@]1(NC(=O)[C@@H]1C[C@@H]2CN1C(=O)[C@H](C(C)(C)C)NC(=O)[C@@H](NC(=O)c1cnccn1)COC/C=C/c1cccc3c1CN(C3)C(=O)O2)C(=O)NS(=O)(=O)C1CC1 ?
Result: 50 to 500 nM

====

- method_notes: liver microsome metabolity assay (PK Assays)
- Assay type: in vitro ADME, human
- stated_conditions: human liver microsomes, pH 7.4; human microsome 0.75 mg/mL, 1.5 μM drug solution, NADPH, 37° C., time points 0-45 min, LC/MS; read-out: t1/2
test_readout: half-life at 1 µM (min)
State just the number; it will be interpreted in min.

Task: Endpoint output: half-life at 1 µM of CC[C@@H]1C[C@]1(NC(=O)[C@@H]1C[C@@H]2CN1C(=O)[C@H](C(C)(C)C)NC(=O)OCC(C)(C)CCCCc1cccc3c1CN(C3)C(=O)O2)C(=O)NS(=O)(=O)C1CC1 [MK7009, reference compound] . Value?
Result: 26

====

- method_notes: liver microsome metabolity assay (PK Assays)
- Assay type: in vitro ADME, human
- stated_conditions: human, microsomes, pH 7.4
test_readout: half-life at 1 µM
Report field: quantity (unit follows the number).

Solved entries:
C=C[C@@H]1C[C@]1(NC(=O)[C@@H]1C[C@@H]2CN1C(=O)[C@H](C(C)(C)C)NC(=O)[C@@H](NC(=O)OC(C)(C)C)COC/C=C/c1cccc3c1CN(C3)C(=O)O2)C(=O)NS(=O)(=O)C1CC1 3.3 h
C=C[C@@H]1C[C@]1(NC(=O)[C@@H]1C[C@@H]2CN1C(=O)[C@H](C1CCCCC1)NC(=O)[C@@H](NC(=O)OC(C)(C)C)COC/C=C/c1cc3c(nccc3cc1OC)O2)C(=O)NS(=O)(=O)C1CC1 3.83 h

Task: Field request: half-life at 1 µM | item: C=C[C@@H]1C[C@]1(NC(=O)[C@@H]1C[C@@H]2CN1C(=O)[C@H](C1CCCCC1)NC(=O)[C@@H](NC(=O)OC(C)(C)C)COC/C=C/c1cccc3c1CN(C3)C(=O)O2)C(=O)NS(=O)(=O)C1CC1
Result: 3.22 h
